The reported numbers originate from the supplement of paper PMC10567573.

B1: ATL3 (parent)
chain: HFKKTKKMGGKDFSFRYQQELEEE

Variants of: B1
PROTOCOL: protein stability index of a GFP-peptide fusion (GPS, HEK-293T) (PSI 1-6); higher = more stable;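 note: lentivirally expressed fusions sorted by FACS into six bins by GFP to DsRed ratio, PSI derived from sequencing read proportions per bin multiplied by bin number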
CONDITION_DESCRIPTION: c terminus: a fixed tail appended
MEASURED_ATTRIBUTE: protein stability index

L21I; 2.98
S14M; 2.91
R16H; 3.09
